Assay: gradient 5% acetonitrile 3 min, to 50% in 2 min, to 85% in 15 min, held 3 min, 100 µL/min
Conditions: column: Zorbax Extend-C18 2.1 x 50 mm; eluents: water / acetonitrile, 0.1% formic acid
I'd be grateful if you could share measured RP-LC retention time for these entries.
Write it as a number; the unit s goes unstated.

Read off the recorded RP-LC retention time for O=C(CCc1nc(CSc2nnc(-c3ccccc3)o2)no1)Nc1ccc(Br)cc1
967

Find the measured RP-LC retention time of CCCNc1cc(N2CCCC(CCC(=O)NCc3cccc(F)c3)C2)ncn1 (centres undefined) and report it.
696

Kindly indicate its recorded RP-LC retention time. Item: CCCn1c(=O)c(C)nc2cc(-c3noc(COc4ccccc4)n3)ccc21
1070

Quickly give me recorded RP-LC retention time for CC(=O)c1cccc(NC(=O)N2CCc3nc[nH]c3C2)c1
556

Identify the reported RP-LC retention time for the following entry. O=C(NCc1ccccc1C(F)(F)F)C1CCCN(c2ncnc3nn(-c4ccc(F)cc4)cc23)C1 (centres undefined)
754

Give a short answer stating reported RP-LC retention time for C=CCN(c1ccccc1)c1nc(C(=O)OCC)nc2ccccc12 .
1000

Return value of RP-LC retention time for input Cn1c(=O)oc2cc(-c3noc(-c4cc(F)ccc4F)n3)ccc21 , no commentary.
1010

Return reported RP-LC retention time. Input molecule: CCOc1nc2ccccc2nc1N1CCCC(C(=O)NCc2ccccc2)C1 (centres undefined)
1090

Annotate the molecule Cc1oc(-c2[nH]ncc2C(=O)N2CCCC2)cc1S(=O)(=O)Nc1cccc(F)c1 with its measured RP-LC retention time.
704

* * *

Experiment: gradient 5% acetonitrile 3 min, to 50% in 2 min, to 85% in 15 min, held 3 min, 100 µL/min
Details: column: Zorbax Extend-C18 2.1 x 50 mm; eluents: water / acetonitrile, 0.1% formic acid
Mark true (1) for reported RP-LC retention time of 800 s or greater; mark false (0) for anything smaller.

# check: RP-LC retention time of CCCCc1ccc(NC(=O)N2CCC(c3cc(N)on3)CC2)cc1 is greater than or equal to 800 s
true (1)

Would you say Cc1nn(C(C)C(=O)NCCCOC(C)C)c(=O)c2nn(-c3ccccc3)c(C)c12 (stereo not given) shows RP-LC retention time at minimum 800 s?
false (0)

Check if RP-LC retention time >= 800 s (inclusive). Item: Clc1ccc(-c2noc(Cc3nnc(-c4cccc(Br)c4)o3)n2)cc1
true (1)

Check if RP-LC retention time >= 800 s (inclusive). Item: CN(C)C(=O)c1ccc2c(c1)nnn2CCNC(=O)Nc1ccc(Cl)cc1
false (0)

* * *

For each record, write down the corresponding RP-LC retention time.
Assay: gradient 5% acetonitrile 3 min, to 50% in 2 min, to 85% in 15 min, held 3 min, 100 µL/min
Conditions: column: Zorbax Extend-C18 2.1 x 50 mm; eluents: water / acetonitrile, 0.1% formic acid
A number alone suffices; assume s.

Check the records and state RP-LC retention time for COc1ccccc1C(=O)N1CCC2(CC1)N=C(c1ccc(Cl)cc1)NO2
865

Answer with the recorded RP-LC retention time for the molecule listed here: O=C(c1cc(-c2ccncc2)nc2ccc(Cl)cc12)N1CCN(c2ccccn2)CC1
604

Using known records, supply RP-LC retention time for CC(=O)N1CCc2cc(C(=O)NCc3ccccc3)ccc21
736

Specify RP-LC retention time for Cc1cnc(C2CC2)n1CCNS(=O)(=O)c1ccccc1Cl and stop.
613

Please list RP-LC retention time recorded for the molecule COc1ccc(-c2noc(C3CCCN3C(=O)c3ccco3)n2)cc1OC (centres undefined)
780

# return recorded RP-LC retention time for input Cc1onc(C(=O)N2CCCCCCNC(=O)[C@@H]3CCCC[C@@H]32)c1CN1CCCCC1
686

Indicate its recorded RP-LC retention time; the molecule in question is O=C(CCC1CCCC1)Nc1c2c(nn1-c1cccc(Cl)c1)CS(=O)C2 (centres undefined)
746

// Input: CC12CC(NC(=O)N1c1ccc(C(=O)N3CCN(c4ccccn4)CC3)cc1)c1ccccc1O2 (centres undefined) . Output its RP-LC retention time only.
599

Please look at this molecule and report its RP-LC retention time: O=C(CN1C(=O)CCCc2cc(S(=O)(=O)N3CCCCCC3)ccc21)N1CCc2ccccc2C1
974

* * *

Experiment: gradient 5% acetonitrile 3 min, to 50% in 2 min, to 85% in 15 min, held 3 min, 100 µL/min
Details: column: Zorbax Extend-C18 2.1 x 50 mm; eluents: water / acetonitrile, 0.1% formic acid
reported.endpoint: RP-LC retention time (s)
Write down the numeric answer in s and omit the unit.

Recall and state the measured RP-LC retention time for CCOC(=O)c1nc(NCC2CCN(Cc3ccccc3F)CC2)c2ccccc2n1 .
598

For CN(CCc1noc(COc2ccc(F)cc2)n1)C(=O)Nc1ccccc1 , write its RP-LC retention time.
856

Entry COc1ccc(NC(=O)N2[C@H]3CC[C@@H]2c2cncnc2C3)c(OC)c1 needs its RP-LC retention time filled in; supply it.
639

// Input: CCOC(=O)CC(=O)CSc1nnc(CNC(=O)c2ccc(F)cc2)o1 . Output its RP-LC retention time only.
678

Hello, please tell me recorded RP-LC retention time for this one: CCc1ccc(C(=O)Nc2cc(-c3ccn[nH]3)sc2C)cc1
1120

Give reported RP-LC retention time value for COC(=O)c1c(NC(=O)CSc2nnnn2-c2ccccc2OC)sc2c1CCC2
1060

Find the measured RP-LC retention time of Cc1ccc(Sc2nccnc2N2CCC(C(=O)N3CCN(c4ccc(C)cc4)CC3)CC2)cc1 and report it.
1290

Give reported RP-LC retention time value for Cc1nn(C(C)C(=O)NCCCN(C)Cc2ccccc2)c(=O)c2nn(-c3ccccc3)c(C)c12 (stereo not given)
678

Using known records, supply RP-LC retention time for CCn1cnc2ccc(-c3noc(-c4cccc(OC)c4)n3)cc21
788

Annotate the molecule CCc1noc(NC(C)=O)c1-c1ccc(C)c(S(=O)(=O)NC2CCCCCC2)c1 with its measured RP-LC retention time.
909

Consider the molecule COc1cccc(Cc2nc(-c3cccc(-c4ccnn4C)c3)no2)c1 and give its recorded RP-LC retention time.
1010

Read the entry CCCN1CCn2cc(S(=O)(=O)Nc3ccccc3C)cc2C1=O and write its reported RP-LC retention time.
746

Tell us which RP-LC retention time value is on record for Cc1ccnc(OCC(=O)Nc2ccc(OC(F)(F)F)cc2)n1
771

Return reported RP-LC retention time. Input molecule: CCn1cc(-c2nc(C)c(C(=O)NCc3cccc(C)c3)s2)c2cccnc21
989

Provide only the value of recorded RP-LC retention time for O=C(CN1c2ccc(F)cc2-c2ccccc2S1(=O)=O)N1CCCCCC1
958

Identify measured RP-LC retention time corresponding to Cc1c(-c2noc(C(=O)NCCN(C)C)n2)oc2c(C)cccc12
676

Identify measured RP-LC retention time associated with CNC(=O)C1CCCN(c2nc3ncn(CC(=O)NCc4ccccc4)c(=O)c3s2)C1 (stereo not given)
620

Report RP-LC retention time for COc1ccc(NC(=O)N2[C@H]3CC[C@@H]2c2cnc(-c4ccc(F)cc4)nc2C3)cc1OC
875

State its RP-LC retention time for this molecule: Cc1cc2nn(CC(=O)NC(C)C)c(=O)n2c(-c2ccc(C(F)(F)F)cc2)n1
576

Read off the recorded RP-LC retention time for CCn1c(CCNC(=O)c2ccc(C)c(C)c2)nc2cccnc21
661

* * *

Assay: gradient 5% acetonitrile 3 min, to 50% in 2 min, to 85% in 15 min, held 3 min, 100 µL/min
Settings: column: Zorbax Extend-C18 2.1 x 50 mm; eluents: water / acetonitrile, 0.1% formic acid
Simple rule here: RP-LC retention time less than 700 s is satisfied, otherwise not satisfied.

# check: RP-LC retention time < 700 s for COC(=O)c1ccc2c(=O)n(CCc3ccccc3)c(N3CCCCCC3)nc2c1
not satisfied

Take the compound CC1CCC(NC(=O)C2CCN(S(=O)(=O)c3cc(C(=O)N(C)C)cs3)CC2)CC1 (stereo not given) and say whether its RP-LC retention time is less than 700 s.
not satisfied

Is 700 s strictly greater than the compound's reported RP-LC retention time? compound: O=C(Cn1cnc2nc(N3CCCC(C(=O)NC4CC4)C3)sc2c1=O)NCc1ccc(F)cc1 (stereo not given)
satisfied

Does the reported RP-LC retention time of the following compound sit strictly below 700 s? O=C(c1nnn(Cc2ccc(Cl)cc2)c1-n1cccc1)N1CCCC1
not satisfied

* * *

Record form. Attribute: RP-LC retention time. Fill in for each entry.
Assay: gradient 5% acetonitrile 3 min, to 50% in 2 min, to 85% in 15 min, held 3 min, 100 µL/min
Conditions: column: Zorbax Extend-C18 2.1 x 50 mm; eluents: water / acetonitrile, 0.1% formic acid
State just the number; it will be interpreted in s.

Tell me its RP-LC retention time given COc1ccc(CC(=O)NC2CCN(c3cc(-c4ccc(Cl)cc4)[nH]n3)C2)cc1 (centres undefined) as the entry.
762

Assign RP-LC retention time to the following record: COc1ccc(S(=O)(=O)N2CCCC(C(=O)NCc3ccncc3)C2)cc1OC (centres undefined)
591

Quickly give me recorded RP-LC retention time for CC(C)n1cnc(S(=O)(=O)N2CCC(C(=O)NCCCc3ccccc3)CC2)c1
764

Indicate the recorded RP-LC retention time value for this compound: CCc1ccc(C2=C(C)C(N3CCCN(C(=O)c4ccccn4)CC3)=NS2(=O)=O)cc1
788

Check the records and state RP-LC retention time for COC(=O)c1ccc2c(=O)n(-c3ccc(C)c(F)c3)c(N3CCCC3)nc2c1
1020

Check the records and state RP-LC retention time for O=C(Nc1ccc2c(c1)OCCO2)c1cn(-c2cc(N3CCCC3)ncn2)cn1
795

Please supply the value of reported RP-LC retention time for the item Cc1nc(C2CCOCC2)n(C2CCN(S(=O)(=O)c3ccc(Cl)cc3C)C2)n1 (centres undefined)
771

In one line, give reported RP-LC retention time of the entry COc1ccc(-c2cc3nn(CC(=O)Nc4ccc(C)cc4F)c(=O)n3c(C)n2)cc1 .
963

Determine its reported RP-LC retention time: CC(O)(CCc1ccccc1)CNC(=O)c1ccc(F)cc1 (centres undefined)
758

// provenance: the METLIN SMRT retention time set (Domingo-Almenara et al. 2019)
